Source of measurements: PubChem BioAssay AID192

system: BDF1 mice, B16 melanoma ip, median survival T/C; assay: NCI In Vivo Anticancer Drug Screen. Data for tumor model B16 Melanoma (intraperitoneal) in B6D2F1 (BDF1) mice; conditions: endpoint: median survival time; dose: 6.25 mg/kg/injection; schedule: Q01DX009 (ip); vehicle: saline with Tween-80; higher = longer survival
Toxic doses and inconclusive results are not listed.
Exercise: for every item that follows, state its recorded T/C.

>  <compound>
Nc1nnc[se]1

>  <T/C>
97 % of control

$$$$
>  <compound>
OC(CC(O)(C(F)(F)F)C(F)(F)F)CC(O)(C(F)(F)F)C(F)(F)F

>  <T/C>
114 % of control

$$$$
>  <compound>
CNc1ccc(O)cc1

>  <T/C>
92 % of control

$$$$

Here are 3 compounds. What values of T/C were reported for them?
1. C/C(=N/O)[c-]1[c-][c-][c-][c-]1.[Fe].[c-]1[c-][c-][cH-][c-]1
2. Cc1ccc(Cl)cc1NC(=O)Nc1ccccc1Cl
3. CC(C)=CCNc1ncnc2c1ncn2C1OC(CO)C(O)C1O (stereo unspecified)

1: 100 % of control; 2: 90 % of control; 3: 102 % of control

----------
Exercise: for every item that follows, state its recorded T/C.
system: BDF1 mice, B16 melanoma ip, median survival T/C; assay: NCI In Vivo Anticancer Drug Screen. Data for tumor model B16 Melanoma (intraperitoneal) in B6D2F1 (BDF1) mice; details: endpoint: median survival time; dose: 12.5 mg/kg/injection; schedule: Q01DX009 (ip); vehicle: Klucel (hydroxypropylcellulose) (HPC); higher = longer survival
Inconclusive results and toxic doses are left out.

The following molecules have reported results that may help.
>  <molecule>
O=[N+]([O-])c1ccc(C(O)C=C(C(F)(F)F)C(F)(F)F)cc1 (stereo not given)

>  <T/C>
93 % of control

$$$$
>  <molecule>
CCN(CC)CCCC(C)Nc1cc(/C=C/c2ccc(Cl)cc2)nc2cc(N(C)C)ccc12 (stereo not given)

>  <T/C>
97 % of control

$$$$
>  <molecule>
CCCC1=NNc2n[nH]c(=S)n2N1

>  <T/C>
106 % of control

$$$$
>  <molecule>
CC(C)N=C(N)/N=C(\N)Nc1ccc2ccc3ccccc3c2c1

>  <T/C>
103 % of control

$$$$
>  <molecule>
COc1cc(-c2ccc(N=Nc3ccc4c(S(=O)(=O)O)cc(S(=O)(=O)O)c(N)c4c3O)c(OC)c2)ccc1N=Nc1ccc2c(S(=O)(=O)O)cc(S(=O)(=O)O)c(N)c2c1O

>  <T/C>
88 % of control

$$$$
>  <molecule>
CC(=O)Nc1ccc(NC(=O)c2ccc([As](O)O)cc2)cc1

>  <T/C>
104 % of control

$$$$

Here are 4 molecules. What values of T/C were reported for them?
1. NC1=NC(=O)C(c2ccccc2)O1 (stereo not given)
2. Cc1cc([N+](=O)[O-])cc(C)c1OC(=O)c1ccc(N=C(N)N)cc1
3. C[C@@H]1C[C@H]2[C@@H]3CCC4=CC(=O)C=C[C@]4(C)[C@@]3(F)[C@@H](O)C[C@]2(C)[C@@]1(O)C(=O)CO
4. CCNC(C)(C)C(SSSC(c1ccc(Cl)cc1)C(C)(C)NCC)c1ccc(Cl)cc1 (stereo not given)

["94 % of control", "98 % of control", "114 % of control", "94 % of control"]
